System: LOX IMVI melanoma
Assay: NCI tumour cell line growth inhibition, 48 h
Mark N for TGI values under 8 µM, and Y for everything at or above.

# count of solved cases: 3
Molecule | Target system | Group
Cc1ccc(O)c(C2=CC3=NNC(=O)C3C(c3cccc(Cl)c3)C2)c1 (stereo not given) | LOX IMVI melanoma | Y
O=c1[nH]nc(Cc2ccccc2)n1/N=C/c1ccco1 | LOX IMVI melanoma | Y
CCCc1nc(Cl)nc(Cl)c1Cl | LOX IMVI melanoma | N

Let's switch to this molecule now.
Identify whether the reported TGI of the following molecule is 8 µM or greater: COc1cc(C(=O)Oc2c(C(C)=O)sc3c2c(=O)n(-c2ccccc2)c(=S)n3-c2ccccc2)cc(OC)c1OC Y
